The following binders are shown together with reported koff values.
molecular target: T1, mouse serum albumin (mouse, UniProt P07724 25-608); test: SPR (Bruker Sierra SPR-32), MSA on chip, DARPin as analyte, 1:1 Langmuir fit
T1 construct: also called MSA
T1 sequence (P07724 25-608 limits assumed): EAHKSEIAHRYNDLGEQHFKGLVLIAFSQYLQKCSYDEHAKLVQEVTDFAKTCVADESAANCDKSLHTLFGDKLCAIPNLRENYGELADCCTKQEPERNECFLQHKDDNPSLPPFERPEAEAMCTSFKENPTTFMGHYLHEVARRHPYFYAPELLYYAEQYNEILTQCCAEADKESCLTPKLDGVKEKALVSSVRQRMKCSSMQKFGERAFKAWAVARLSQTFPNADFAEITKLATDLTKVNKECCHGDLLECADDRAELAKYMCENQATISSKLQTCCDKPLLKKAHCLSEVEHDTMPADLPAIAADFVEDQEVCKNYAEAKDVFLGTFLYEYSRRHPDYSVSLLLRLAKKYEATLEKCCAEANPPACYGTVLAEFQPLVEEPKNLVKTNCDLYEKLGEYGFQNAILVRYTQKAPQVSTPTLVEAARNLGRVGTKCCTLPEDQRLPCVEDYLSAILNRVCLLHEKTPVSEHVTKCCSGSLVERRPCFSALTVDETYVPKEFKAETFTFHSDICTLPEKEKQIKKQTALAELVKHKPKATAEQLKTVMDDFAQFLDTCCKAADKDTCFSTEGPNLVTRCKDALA
propertyMeasured: koff

>>> datavalue("MAM282 (two domain ankyrin repeat protein, N-terminal His6-TEV tag) (designed binder, also called 2D DARPin) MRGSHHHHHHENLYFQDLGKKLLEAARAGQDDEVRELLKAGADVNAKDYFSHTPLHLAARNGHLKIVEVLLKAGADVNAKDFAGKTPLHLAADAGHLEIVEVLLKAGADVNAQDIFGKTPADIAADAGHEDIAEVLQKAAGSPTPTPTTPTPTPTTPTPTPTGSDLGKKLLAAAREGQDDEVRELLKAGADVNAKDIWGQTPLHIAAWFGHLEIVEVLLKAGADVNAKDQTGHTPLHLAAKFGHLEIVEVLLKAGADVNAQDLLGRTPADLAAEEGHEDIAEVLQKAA")
"0.0354 s⁻¹"
>>> datavalue("MAM160 (two domain ankyrin repeat protein, N-terminal His6-TEV tag) (designed binder, also called 2D DARPin) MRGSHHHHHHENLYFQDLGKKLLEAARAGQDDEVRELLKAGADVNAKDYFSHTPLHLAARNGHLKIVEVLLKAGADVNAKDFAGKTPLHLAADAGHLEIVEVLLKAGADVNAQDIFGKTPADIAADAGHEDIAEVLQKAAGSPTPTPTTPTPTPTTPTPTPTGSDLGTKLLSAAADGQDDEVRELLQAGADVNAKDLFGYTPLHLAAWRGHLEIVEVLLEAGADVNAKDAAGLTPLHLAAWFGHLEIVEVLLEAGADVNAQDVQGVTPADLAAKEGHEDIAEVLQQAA")
"0.0271 s⁻¹"
>>> datavalue("MAM283 (two domain ankyrin repeat protein, N-terminal His6-TEV tag) (designed binder, also called 2D DARPin) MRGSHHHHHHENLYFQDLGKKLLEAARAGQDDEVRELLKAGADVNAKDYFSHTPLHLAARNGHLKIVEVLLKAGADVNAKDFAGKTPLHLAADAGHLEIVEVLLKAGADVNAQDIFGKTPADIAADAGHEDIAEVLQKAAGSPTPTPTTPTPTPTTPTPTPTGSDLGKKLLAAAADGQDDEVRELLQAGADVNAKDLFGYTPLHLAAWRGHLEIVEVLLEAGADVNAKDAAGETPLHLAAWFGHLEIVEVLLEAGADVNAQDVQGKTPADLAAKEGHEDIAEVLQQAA")
"0.0378 s⁻¹"
>>> datavalue("MAM279 (two domain ankyrin repeat protein, N-terminal His6-TEV tag) (designed binder, Cleavage of the tag is not reported; also called 2D DARPin) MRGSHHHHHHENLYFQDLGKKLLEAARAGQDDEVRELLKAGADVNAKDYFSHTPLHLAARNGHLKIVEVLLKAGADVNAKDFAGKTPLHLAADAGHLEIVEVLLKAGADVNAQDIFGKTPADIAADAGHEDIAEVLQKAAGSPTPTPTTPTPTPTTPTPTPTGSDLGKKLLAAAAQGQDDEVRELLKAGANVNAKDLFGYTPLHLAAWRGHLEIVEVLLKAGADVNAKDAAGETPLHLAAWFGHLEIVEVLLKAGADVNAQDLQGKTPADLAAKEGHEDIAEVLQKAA")
"0.0335 s⁻¹"
